target: DCN1-UBC12 interaction (Homo sapiens (Human)); assay: biochemical; format: binding; conditions: read-out: TR-FRET IC50
Sequence (Q96GG9 60-248 limits assumed): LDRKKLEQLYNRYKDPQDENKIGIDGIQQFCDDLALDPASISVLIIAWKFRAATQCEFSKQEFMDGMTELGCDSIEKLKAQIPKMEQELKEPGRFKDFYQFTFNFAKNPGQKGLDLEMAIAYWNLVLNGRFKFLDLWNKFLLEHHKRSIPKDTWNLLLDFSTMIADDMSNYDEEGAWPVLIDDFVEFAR
pIC50: −log10 of the molar value.
Task for the reader: assign each of the following molecules its reported pIC50.

## Task Lab request: please report pIC50 under test system DCN1-UBC12 interaction (Homo sapiens (Human)) for CCCC(C)N1CCC(N(Cc2ccccc2)C(=O)Nc2ccc(C)nc2Br)CC1 (stereo not shown)
## Result < 4.29

## Task Let us now turn to O=C(Nc1ccc(Cl)cc1)NC1CCN(Cc2ccccc2)CC1
## Result < 4.17

## Task Similarly, O=C(NC1CCN(Cc2ccc(F)cc2)CC1)C(F)(F)F ?
## Result < 4.03

## Task Same question for O=C(Nc1ccc(F)cc1)NC1CCN(Cc2ccccc2)CC1 please.
## Result < 4.19

## Task Another molecule to check: O=C(Nc1cc(F)cc(C(F)(F)F)c1)N(Cc1ccccc1)C1CCN(Cc2cncn2Cc2ccccc2)CC1
## Result < 4.68

## Task Let us now turn to CCCC(C)N1CCC(N(Cc2ccccc2)C(=O)Nc2cc(F)cc(S(F)(F)(F)(F)F)c2)CC1 (stereo not shown)
## Result 6.58

## Task Continue with CCCC(C)N1CCC(N(Cc2ccccc2)C(=O)Nc2cccc(N(C)C)c2)CC1 (stereo not shown)
## Result 5.64

## Task Similarly, CC(=O)c1cccc(NC(=O)NC2CCN(Cc3ccccc3)CC2)c1 ?
## Result < 4.15

## Task Same question for O=C(Nc1ccc(C(=O)N2CCOCC2)cc1)Nc1cccc(C(F)(F)F)c1 please.
## Result < 4.18

## Task Please answer likewise for COc1ccc(CN(C(=O)Nc2ccccc2C)C2CCN(C(C)=O)CC2)cc1
## Result < 4.17

## Task Please do the same for Cc1ccc(CN2CCC(N(Cc3ccccc3)C(=O)Nc3cc(F)cc(C(F)(F)F)c3)CC2)s1 as well.
## Result < 4.57

## Task Further, for O=C(Nc1ccc2c(c1)OC(F)(F)O2)NC1CCN(C(=O)c2ccccc2)CC1 ?
## Result < 4.13

## Task Please give the result for C=CC(=O)NCCCN(C(=O)Nc1cccc(C(F)(F)F)c1)C1CCN(C(C)CCC)CC1 (stereo not shown) [A134] too.
## Result 5.48

## Task Try this molecule too: CC(=O)N1CCC(N(Cc2ccco2)C(=O)Nc2cccc(C)c2)CC1
## Result < 4.17

## Task Next molecule: CCCC(C)N1CCC(N(Cc2ccccc2)C(=O)Nc2cc(F)cc(C(F)(F)F)c2)CC1 (stereo not shown)
## Result 7.24

## Task Same question, CCCC(C)N1CCC(N(Cc2ccccc2)C(=O)Nc2ccc(CN(C)C)cc2)CC1 (stereo not shown) this time
## Result < 4.34

## Task Next: O=C(c1ccc(F)cc1)N1CCCC(c2nc3ccccc3s2)C1 (stereo not shown)
## Result < 4.31

## Task CCCC(C)N1CCC(N(Cc2ccccc2)C(=O)Nc2ccc(Cl)nc2)CC1 (stereo not shown) ?
## Result < 4.16

## Task Then this molecule: CCCC(C)N1CCC(N(Cc2ccccc2)C(=O)Nc2ccc(C(F)(F)F)cc2)CC1 (stereo not shown)
## Result 6.62
